meta.source: the OPERA property sets (Mansouri et al. 2018)

Overview of reported log10 of solubility across a group of compounds:
# experimental-setup: 25 °C
Heads up: the numbers are on a log10 scale; they represent solubility in µM.

Solved entries:
Clc1ccccc1Oc1ccccc1 | 1.22
Clc1cccc(Oc2ccccc2)c1 | 1.79
Clc1ccc(Oc2cccc(Cl)c2)cc1 | 1.23
Clc1ccc(Oc2cc(Cl)cc(Cl)c2)cc1 | 0.48
Clc1ccc(Oc2ccccc2)cc1Cl | 1.28
Clc1cc(Cl)c(Cl)c(Oc2ccccc2)c1 | 0.81

Need log10 of solubility of "Clc1ccc(Oc2ccc(Cl)c(Cl)c2)cc1" , thanks. 0.34

Need log10 of solubility of "Clc1ccc(Oc2cc(Cl)ccc2Cl)cc1" , thanks. 0.56

Need log10 of solubility of "Clc1ccc(Oc2c(Cl)cccc2Cl)cc1" , thanks. 0.09

Need log10 of solubility of "Clc1cccc(Oc2ccc(Cl)c(Cl)c2)c1" , thanks. 0.56

Need log10 of solubility of "Clc1ccc(Oc2ccccc2)c(Cl)c1" , thanks. 1.37

Need log10 of solubility of "Clc1ccc(Oc2ccccc2Cl)cc1Cl" , thanks. 0.80

Need log10 of solubility of "Clc1ccc(Oc2ccccc2Cl)c(Cl)c1" , thanks. 1.05
